Would you kindly list r left shift for each of these molecules?
# assay_system: mGluR5 receptors (Rattus norvegicus)
# Construct: Primary astrocyte cultures are prepared from cortices of newborn rats; endogenous in cells; host or cells: primary cortical astrocytes from Sprague-Dawley rat pups (2-4 d old)
# protocol_notes: Cytosolic calcium studies with astrocytes (FLIPR), functional assay of mGluR5 receptors
# Type: cell-based
# stated_conditions: Table A1, left shift of quisqualate EC50 in the presence and absence of 10 µM modulator

Please give r left shift for each item listed below.
1. FC(F)(F)CCN1CCO[C@@H]2c3cc(C#Cc4ccccc4)cnc3CC[C@@H]21 (racemic)
2. CCCN1CCO[C@@H]2c3cc(C#Cc4ccc(F)cc4)cnc3CC[C@@H]21 (racemic)
3. O=C1OC2(CCCc3ncc(C#Cc4cccc(F)c4)cc32)CN1c1ccccc1 (racemic)
4. CCOC(=O)C(=O)N1CCc2ncc(C#Cc3ccccc3)cc2C1

-- reply
1: 3.6-fold; 2: 3.3-fold; 3: 1.7-fold; 4: 2.8-fold

====

# assay_system: mGluR5 receptors (Rattus norvegicus, UniProt P31424)
# Construct: Primary astrocyte cultures are prepared from cortices of newborn rats; endogenous in cells; host or cells: primary cortical astrocytes from Sprague-Dawley rat pups (2-4 d old)
# Sequence (P31424 21-1203): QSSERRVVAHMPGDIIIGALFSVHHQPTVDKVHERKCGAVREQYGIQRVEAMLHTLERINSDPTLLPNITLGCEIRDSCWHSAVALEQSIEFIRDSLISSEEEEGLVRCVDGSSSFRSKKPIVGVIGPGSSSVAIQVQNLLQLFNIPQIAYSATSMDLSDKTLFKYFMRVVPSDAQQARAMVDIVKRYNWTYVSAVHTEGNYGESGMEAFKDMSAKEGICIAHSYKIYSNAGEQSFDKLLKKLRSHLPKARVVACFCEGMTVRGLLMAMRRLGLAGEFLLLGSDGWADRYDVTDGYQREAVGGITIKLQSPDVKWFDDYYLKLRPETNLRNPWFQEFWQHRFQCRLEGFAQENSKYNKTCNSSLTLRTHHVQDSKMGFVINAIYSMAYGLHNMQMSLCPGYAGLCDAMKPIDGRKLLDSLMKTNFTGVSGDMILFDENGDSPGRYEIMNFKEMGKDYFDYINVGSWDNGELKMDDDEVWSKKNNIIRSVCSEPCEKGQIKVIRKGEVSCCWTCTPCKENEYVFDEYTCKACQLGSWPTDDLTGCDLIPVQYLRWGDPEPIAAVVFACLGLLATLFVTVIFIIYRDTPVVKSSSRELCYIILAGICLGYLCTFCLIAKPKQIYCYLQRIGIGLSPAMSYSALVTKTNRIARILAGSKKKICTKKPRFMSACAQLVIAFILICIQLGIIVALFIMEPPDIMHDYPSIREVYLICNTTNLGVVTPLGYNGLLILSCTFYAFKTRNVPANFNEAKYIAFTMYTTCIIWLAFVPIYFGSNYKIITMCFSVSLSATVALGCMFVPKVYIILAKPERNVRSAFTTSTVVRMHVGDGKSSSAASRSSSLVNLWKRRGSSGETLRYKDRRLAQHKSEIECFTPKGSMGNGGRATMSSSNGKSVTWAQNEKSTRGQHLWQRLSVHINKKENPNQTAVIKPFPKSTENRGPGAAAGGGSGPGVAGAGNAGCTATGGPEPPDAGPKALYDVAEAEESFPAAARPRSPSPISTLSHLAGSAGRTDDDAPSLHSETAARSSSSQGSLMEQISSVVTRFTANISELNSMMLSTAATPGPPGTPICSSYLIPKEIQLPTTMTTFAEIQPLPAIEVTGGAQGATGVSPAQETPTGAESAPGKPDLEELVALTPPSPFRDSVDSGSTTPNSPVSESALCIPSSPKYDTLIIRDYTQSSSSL
# protocol_notes: Cytosolic calcium studies with astrocytes (FLIPR), functional assay of mGluR5 receptors
# Assay type: cell-based
# stated_conditions: Table A3 (SAMs / very weak PAMs), quisqualate EC50 shift with 10 µM modulator
quantity: r left shift

These recorded examples may help you get a feel for the data.
-- ask Give r left shift for this entry on mGluR5 receptors (Rattus norvegicus, UniProt P31424): COC(=O)N1CC[C@H]2CCc3cc(C#Cc4ccccc4)cnc3[C@H]21 (racemic) [Example 80]
-- reply 1.8-fold

-- ask Look up and report r left shift, with mGluR5 receptors (Rattus norvegicus, UniProt P31424) as system, for CCCN1CCO[C@@H]2c3cc(C#Cc4ccccc4)cnc3CC[C@@H]21 (single isomer, unassigned) [Example 17]
-- reply 3.5-fold

-- ask Supply r left shift measured with mGluR5 receptors (Rattus norvegicus, UniProt P31424) for CC(C)C(=O)N1CCc2ncc(C#Cc3ccccc3)cc2C1 [Example 33] .
-- reply 1.3-fold

Each of the following entries comes with a recorded value; kindly state r left shift for each.
1. CCCN1CC2(CCCc3ncc(C#Cc4cccc(C)c4)cc32)OC1=O (racemic) [Example 64]
2. CC(C)S(=O)(=O)N1CCc2ncc(C#Cc3ccccc3)cc2C1 [Example 81]

-- reply
1: 0.9-fold; 2: 1.5-fold

Provide r left shift values for the following items, in order.
1. O=C1OC2(CCCc3ncc(C#Cc4cccc(F)c4)cc32)CN1C1CC1 (racemic) [Example 76]
2. CCOC(=O)N1CCc2ncc(C#Cc3ccccc3)cc2C1 [Example 40]
3. COC1CCCc2ncc(C#Cc3ccccc3)cc21 (single isomer, unassigned) [Example 2]

-- reply
1: 1.4-fold; 2: 1.6-fold; 3: 4.4-fold

====

# assay_system: mGluR5 receptors (Rattus norvegicus)
# Construct: Primary astrocyte cultures are prepared from cortices of newborn rats; endogenous in cells; host or cells: primary cortical astrocytes from Sprague-Dawley rat pups (2-4 d old)
# protocol_notes: Cytosolic calcium studies with astrocytes (FLIPR), functional assay of mGluR5 receptors
# Format: cell-based
# stated_conditions: Table A1, left shift of quisqualate EC50 in the presence and absence of 10 µM modulator
Assign r left shift to each entry below.

-- ask # return recorded r left shift for input CC(C)COC(=O)N1CCc2ncc(C#Cc3ccccc3)cc2C1 [Example 41]
-- reply 1.2-fold

-- ask Retrieve r left shift measured for CCCN1CCO[C@@H]2c3cc(C#Cc4ccccc4)cnc3CC[C@@H]21 (single isomer, unassigned) [Example 16] and print it.
-- reply 6.0-fold

-- ask Tell me measured r left shift for COC(=O)N1CC[C@H]2c3ncc(C#Cc4cccc(F)c4)cc3CC[C@H]21 [Example 72] please.
-- reply 1.3-fold

-- ask Give r left shift for the following compound: CC1(C(=O)N2CCc3ncc(C#Cc4ccccc4)cc3C2)COC1 [Example 36]
-- reply 2.7-fold

-- ask State its r left shift for this compound: O=S(=O)(C1CC1)N1CCc2ncc(C#Cc3ccccc3)cc2C1 [Example 38]
-- reply 2.5-fold

-- ask Tell me its r left shift given COC(=O)N1CC[C@H]2c3ncc(C#Cc4ccccc4)cc3CC[C@H]21 [Example 71] as the entry.
-- reply 1.3-fold

-- ask Tell me its r left shift given CN1CCO[C@@H]2c3cc(C#Cc4ccccc4)cnc3CC[C@@H]21 (racemic) [Example 13] as the entry.
-- reply 1.7-fold

-- ask Using the record for CCCN1CCO[C@H]2c3cc(C#Cc4ccccc4)cnc3CC[C@@H]21 (racemic) [Example 22] , state its measured r left shift.
-- reply 1.8-fold

With those in mind, consider the next compound.
-- ask Fill in reported r left shift for this entry: O=C(N1CCCCC1)N1CCc2ncc(C#Cc3ccccc3)cc2C1 [Example 50]
-- reply 1.9-fold
